# System: L929 fibroblasts
# Type: cell-based
# test.settings: 24 h
No end group written: not given here.
measured.attribute: EC50 (µM)
Supply the numeric figure in µM, leaving out any unit text.

QUERY: Form field: reported EC50 of RRRRFFFF [Peptide R4F4]
RESULT: 481

All values here come from paper PMC12873548.
